Test system: Vero E6 infected with SARS-CoV-2
testSummary: inhibition of SARS-CoV-2 cytopathic effect; higher = more antiviral protection, active = above 15
measurementParameters: 1 nM; 48 h
We begin with a simple list: items and their reported inhibition of SARS-CoV-2 cytopathic effect.
measure: inhibition of SARS-CoV-2 cytopathic effect (%)

- molecule: "O=C1CCC[C@@H]2[C@H]3CCCN4CCC[C@@H](CN12)[C@@H]34"
  target: "Vero E6 infected with SARS-CoV-2"
  readoutUnit: "%"
  reading: -2.75
- molecule: "O=C(O)c1cc(=O)[nH]c(=O)[nH]1"
  target: "Vero E6 infected with SARS-CoV-2"
  readoutUnit: "%"
  reading: -2.95
- molecule: "CC(C)(Oc1ccc(Cl)cc1)C(=O)N1CSCC1C(=O)O (stereo unspecified) [timofibrate]"
  target: "Vero E6 infected with SARS-CoV-2"
  readoutUnit: "%"
  reading: 1.85
- molecule: "CCc1nc(C)ccc1O"
  target: "Vero E6 infected with SARS-CoV-2"
  readoutUnit: "%"
  reading: 1.2
- molecule: "CC(=O)NO [acetohydroxamic-acid]"
  target: "Vero E6 infected with SARS-CoV-2"
  readoutUnit: "%"
  reading: 4.31
- molecule: "O=C(Nc1cccc(Nc2ncc(Br)c(NCCc3cnc[nH]3)n2)c1)N1CCCC1"
  target: "Vero E6 infected with SARS-CoV-2"
  readoutUnit: "%"
  reading: -2.91
- molecule: "C[C@]12CC[C@H]3[C@@H](CCC4=CC(=O)CC[C@@]43C)[C@@H]1CC[C@@H]2O"
  target: "Vero E6 infected with SARS-CoV-2"
  readoutUnit: "%"
  reading: 0.04
- molecule: "CCOC(=O)CC(=O)N1CCSC1COc1ccccc1OC (stereo unspecified)"
  target: "Vero E6 infected with SARS-CoV-2"
  readoutUnit: "%"
  reading: -0.34
- molecule: "CC(C)(C)N1CCC(c2ccccc2)(c2ccccc2)CC1"
  target: "Vero E6 infected with SARS-CoV-2"
  readoutUnit: "%"
  reading: 0.7
- molecule: "CC(C)c1cccc2c1OC(C(C)C)C(=S)N2CC(=O)O (stereo unspecified)"
  target: "Vero E6 infected with SARS-CoV-2"
  readoutUnit: "%"
  reading: -0.74
- molecule: "Clc1ccc(C2(c3ccc(-c4cn[nH]c4)cc3)CCNCC2)cc1"
  target: "Vero E6 infected with SARS-CoV-2"
  readoutUnit: "%"
  reading: 1.57
- molecule: "C=C1/C(=C\\C=C2/CCC[C@]3(C)[C@@H]([C@H](C)OCCC(C)(C)O)CC[C@@H]23)C[C@@H](O)C[C@@H]1O"
  target: "Vero E6 infected with SARS-CoV-2"
  readoutUnit: "%"
  reading: 1.71
- molecule: "CCC(=O)O[C@]1(C(=O)COC(C)=O)CC[C@H]2[C@@H]3C[C@H](C)C4=CC(=O)C=C[C@]4(C)[C@H]3[C@@H](O)C[C@@]21C [methylprednisolone-aceponate]"
  target: "Vero E6 infected with SARS-CoV-2"
  readoutUnit: "%"
  reading: 1.61
- molecule: "CC(Cc1ccccc1)(NC(=O)CN)c1ccccc1 (stereo unspecified) [remacemide]"
  target: "Vero E6 infected with SARS-CoV-2"
  readoutUnit: "%"
  reading: 0.2
- molecule: "COc1ccccc1N1CCN(CC(O)COc2cc(OC)c(OC)c(OC)c2)CC1 (stereo unspecified)"
  target: "Vero E6 infected with SARS-CoV-2"
  readoutUnit: "%"
  reading: 0.76
- molecule: "Cc1[nH]cnc1-c1ccc(Cl)cc1"
  target: "Vero E6 infected with SARS-CoV-2"
  readoutUnit: "%"
  reading: -0.61
- molecule: "Nc1ccc(C(=O)Nc2cccc(-c3nc(N4CCOCC4)c4oc5ncccc5c4n3)c2)cn1"
  target: "Vero E6 infected with SARS-CoV-2"
  readoutUnit: "%"
  reading: -0.93
- molecule: "C[N+]1(CCCCC[N+]2(C)CCCC2)CCCC1"
  target: "Vero E6 infected with SARS-CoV-2"
  readoutUnit: "%"
  reading: 2.83
- molecule: "CCOC(=O)[C@H](CCc1ccccc1)N[C@H]1CCc2ccccc2N(CC(=O)O)C1=O"
  target: "Vero E6 infected with SARS-CoV-2"
  readoutUnit: "%"
  reading: 2.45
- molecule: "CCN(CC)CCOCCOC(=O)C(CC)(CC)c1ccccc1"
  target: "Vero E6 infected with SARS-CoV-2"
  readoutUnit: "%"
  reading: -3.54
- molecule: "CC[C@@H](CO)NC(=O)[C@@H]1C=C2c3cccc4[nH]cc(c34)C[C@H]2N(C)C1"
  target: "Vero E6 infected with SARS-CoV-2"
  readoutUnit: "%"
  reading: -0.77
- molecule: "Cc1cc(NCCO)nc(-c2ccc(Br)cc2)n1"
  target: "Vero E6 infected with SARS-CoV-2"
  readoutUnit: "%"
  reading: 1.81
- molecule: "CC(=O)O[C@@]12CO[C@@H]1C[C@H](O)[C@@]1(C)C(=O)[C@H](O)C3=C(C)[C@@H](O)C[C@@](O)([C@@H](OC(=O)c4ccccc4)[C@H]21)C3(C)C"
  target: "Vero E6 infected with SARS-CoV-2"
  readoutUnit: "%"
  reading: -0.5
- molecule: "Cc1cc(Nc2ncnc3ccc(-c4ccc(CNCCS(C)(=O)=O)o4)cc23)ccc1Oc1ccn2ncnc2c1"
  target: "Vero E6 infected with SARS-CoV-2"
  readoutUnit: "%"
  reading: 2.32
- molecule: "CC(C)(C)[C@]1(O)CCN2C[C@H]3c4ccccc4CCc4cccc(c43)[C@@H]2C1"
  target: "Vero E6 infected with SARS-CoV-2"
  readoutUnit: "%"
  reading: 1.69
- molecule: "O=C(Cc1ccc(-c2ccccc2)cc1)Nc1ccccn1 [difenpiramide]"
  target: "Vero E6 infected with SARS-CoV-2"
  readoutUnit: "%"
  reading: 2.42
